Just for reference, ChEMBL document CHEMBL4261490 is where these values come from.

experiment: Selectivity index, ratio of ED50 for human HaCaT cells to MIC for Staphylococcus aureus 3R7089 strain Oxford/ATCC 9144; assay type: toxicity; conditions: read-out: Selectivity Index
Square brackets hold non-standard residues; d marks the D form. Peptide text beside a SMILES is read from it. Nspe = C[C@H](NCC(=O)O)c1ccccc1; NhArg = N=C(N)NCCCCNCC(=O)O; Nlys = NCCCCNCC(=O)O
MEASUREMENT LABEL: selectivity ratio

C[C@H](c1ccccc1)N(CC(N)=O)C(=O)CN(C(=O)CN(CCCCN)C(=O)CN(C(=O)CN(C(=O)CN(CCCCN)C(=O)CN(C(=O)CN(C(=O)CNCCCCN)[C@H](C)c1ccccc1)[C@@H](C)c1ccccc1)[C@H](C)c1ccccc1)[C@@H](C)c1ccccc1)[C@H](C)c1ccccc1 (stereo in doubt): 50
CC(c1ccccc1)N(CC(=O)N(CCN)CC(=O)N(CC(=O)N(CC(=O)N(CCN)CC(=O)N(CC(=O)N(CC(N)=O)[C@@H](C)c1ccccc1)[C@@H](C)c1ccccc1)C(C)c1ccccc1)[C@@H](C)c1ccccc1)C(=O)CN(C(=O)CNCCN)C(C)c1ccccc1 (single isomer, unassigned): 50
C[C@@H](c1ccccc1)N(CC(N)=O)C(=O)CN(C(=O)CN(CCCCNC(=N)N)C(=O)CN(C(=O)CN(C(=O)CN(CCCCNC(=N)N)C(=O)CN(C(=O)CN(C(=O)CN(CCCCN)C(=O)CN(C(=O)CN(C(=O)CNCCCCN)[C@@H](C)c1ccccc1)[C@@H](C)c1ccccc1)[C@@H](C)c1ccccc1)[C@@H](C)c1ccccc1)[C@@H](C)c1ccccc1)[C@@H](C)c1ccccc1)[C@@H](C)c1ccccc1 (H-[Nlys][Nspe][Nspe][Nlys][Nspe][Nspe][NhArg][Nspe][Nspe][NhArg][Nspe][Nspe]-NH2): 6

---

experiment: Selectivity index, ratio of ED50 for human HepG2 cells to MIC for Pseudomonas aeruginosa PAO1 ATCC 15692; type: toxicity; conditions: read-out: Selectivity Index
Square brackets hold non-standard residues; d marks the D form. Peptide text beside a SMILES is read from it. Gly(N-(CH2)6NH2) = NCCCCCCNCC(=O)O; Nspe = C[C@H](NCC(=O)O)c1ccccc1; Nphe = O=C(O)CNCc1ccccc1; Nlys = NCCCCNCC(=O)O
Overview of reported selectivity ratio across a group of compounds:
MEASUREMENT LABEL: selectivity ratio

NCCCCNCC(=O)N(CC(=O)N(CC(=O)N(CCCCN)CC(=O)N(CC(=O)N(CC(N)=O)Cc1ccccc1)Cc1ccccc1)Cc1ccccc1)Cc1ccccc1 (H-[Nlys][Nphe][Nphe][Nlys][Nphe][Nphe]-NH2): 1
NCCCCNCC(=O)N(CC(=O)N(CC(=O)N(CCCCN)CC(=O)N(CC(=O)N(CC(=O)N(CCCCN)CC(=O)N(CC(=O)N(CC(=O)N(CCCCN)CC(=O)N(CC(=O)N(CC(N)=O)Cc1cccc(F)c1)Cc1cccc(F)c1)Cc1cccc(F)c1)Cc1cccc(F)c1)Cc1cccc(F)c1)Cc1cccc(F)c1)Cc1cccc(F)c1)Cc1cccc(F)c1: 1
C[C@@H](c1ccccc1)N(CC(N)=O)C(=O)CN(C(=O)CN(CCCCCCN)C(=O)CN(C(=O)CN(C(=O)CN(CCCCCCN)C(=O)CN(C(=O)CN(C(=O)CN(CCCCCCN)C(=O)CN(C(=O)CN(C(=O)CNCCCCCCN)[C@@H](C)c1ccccc1)[C@@H](C)c1ccccc1)[C@@H](C)c1ccccc1)[C@@H](C)c1ccccc1)[C@@H](C)c1ccccc1)[C@@H](C)c1ccccc1)[C@@H](C)c1ccccc1 (H-[Gly(N-(CH2)6NH2)][Nspe][Nspe][Gly(N-(CH2)6NH2)][Nspe][Nspe][Gly(N-(CH2)6NH2)][Nspe][Nspe][Gly(N-(CH2)6NH2)][Nspe][Nspe]-NH2): 1

---

assay: Cytotoxicity against human HaCaT cells assessed as reduction in cell viability pretreated for 1 hr followed by DMEM addition measured after 24 hrs by alamar blue assay; assay type: cell-based; details: read-out: ED50
Square brackets hold non-standard residues; d marks the D form. Peptide text beside a SMILES is read from it. Gly(N-2-aminoethyl) = NCCNCC(=O)O; Nspe = C[C@H](NCC(=O)O)c1ccccc1; Nphe = O=C(O)CNCc1ccccc1; Nlys = NCCCCNCC(=O)O
Overview of reported CC50 at 24 h across a group of compounds:
MEASUREMENT LABEL: CC50 at 24 h

CCCCCNCC(=O)N(CC(=O)N(CC(=O)N(CCCCC)CC(=O)N(CC(=O)N(CC(=O)N(CCCCN)CC(=O)N(CC(=O)N(CC(=O)N(CCCCN)CC(=O)N(CC(=O)N(CC(N)=O)[C@@H](C)c1ccccc1)[C@@H](C)c1ccccc1)C(C)c1ccccc1)[C@@H](C)c1ccccc1)C(C)c1ccccc1)[C@@H](C)c1ccccc1)C(C)c1ccccc1)[C@@H](C)c1ccccc1 (single isomer, unassigned): 20 µM
C[C@@H](c1ccccc1)N(CC(N)=O)C(=O)CN(C(=O)CN(CCCCN)C(=O)CN(C(=O)CN(C(=O)CNCCCCN)[C@@H](C)c1ccccc1)[C@@H](C)c1ccccc1)[C@@H](C)c1ccccc1 (H-[Nlys][Nspe][Nspe][Nlys][Nspe][Nspe]-NH2): > 100 µM
NCCNCC(=O)N(CC(=O)N(CC(=O)N(CCN)CC(=O)N(CC(=O)N(CC(N)=O)Cc1ccccc1)Cc1ccccc1)Cc1ccccc1)Cc1ccccc1 (H-[Gly(N-2-aminoethyl)][Nphe][Nphe][Gly(N-2-aminoethyl)][Nphe][Nphe]-NH2): > 100 µM
C[C@@H](c1ccccc1)N(CC(N)=O)C(=O)CN(C(=O)CN(CCN)C(=O)CN(C(=O)CN(C(=O)CNCCN)[C@@H](C)c1ccccc1)[C@@H](C)c1ccccc1)[C@@H](C)c1ccccc1: > 100 µM

---

assay: Selectivity index, ratio of ED50 for human HaCaT cells to MIC for Staphylococcus epidermidis clinical isolate; assay type: toxicity; conditions: read-out: Selectivity Index
Square brackets hold non-standard residues; d marks the D form. Peptide text beside a SMILES is read from it. Gly(Nα-4-Cl-benzyl) = O=C(O)CNCc1ccc(Cl)cc1; Gly(N-(CH2)6NH2) = NCCCCCCNCC(=O)O; Gly(N-2-aminoethyl) = NCCNCC(=O)O; Nspe = C[C@H](NCC(=O)O)c1ccccc1; Nphe = O=C(O)CNCc1ccccc1; Nlys = NCCCCNCC(=O)O
MEASUREMENT LABEL: selectivity ratio

NCCCCNCC(=O)N(CC(=O)N(CC(=O)N(CCCCN)CC(=O)N(CC(=O)N(CC(=O)N(CCCCN)CC(=O)N(CC(=O)N(CC(N)=O)Cc1cccc(F)c1)Cc1cccc(F)c1)Cc1cccc(F)c1)Cc1cccc(F)c1)Cc1cccc(F)c1)Cc1cccc(F)c1: 32
C[C@@H](c1ccccc1)N(CC(N)=O)C(=O)CN(C(=O)CN(CCCCCCN)C(=O)CN(C(=O)CN(C(=O)CNCCCCCCN)[C@@H](C)c1ccccc1)[C@@H](C)c1ccccc1)[C@@H](C)c1ccccc1: 4
NCCCCCCNCC(=O)N(CC(=O)N(CC(=O)N(CCCCCCN)CC(=O)N(CC(=O)N(CC(=O)N(CCCCCCN)CC(=O)N(CC(=O)N(CC(N)=O)Cc1ccccc1)Cc1ccccc1)Cc1ccccc1)Cc1ccccc1)Cc1ccccc1)Cc1ccccc1 (H-[Gly(N-(CH2)6NH2)][Nphe][Nphe][Gly(N-(CH2)6NH2)][Nphe][Nphe][Gly(N-(CH2)6NH2)][Nphe][Nphe]-NH2): 33
C[C@@H](c1ccccc1)N(CC(N)=O)C(=O)CN(C(=O)CN(CCCCN)C(=O)CN(C(=O)CN(C(=O)CNCCCCN)[C@@H](C)c1ccccc1)[C@@H](C)c1ccccc1)[C@@H](C)c1ccccc1 (H-[Nlys][Nspe][Nspe][Nlys][Nspe][Nspe]-NH2): 4
C[C@@H](c1ccccc1)N(CC(N)=O)C(=O)CN(Cc1ccc(F)cc1)C(=O)CN(CCCCN)C(=O)CN(C(=O)CN(Cc1ccc(F)cc1)C(=O)CN(CCCCN)C(=O)CN(C(=O)CN(Cc1ccc(F)cc1)C(=O)CN(CCCCN)C(=O)CN(C(=O)CN(Cc1ccc(F)cc1)C(=O)CNCCCCN)[C@@H](C)c1ccccc1)[C@@H](C)c1ccccc1)[C@@H](C)c1ccccc1: 10
NCCCCNCC(=O)N(CC(=O)N(CC(=O)N(CCCCN)CC(=O)N(CC(=O)N(CC(=O)N(CCCCN)CC(=O)N(CC(=O)N(CC(N)=O)Cc1ccccc1)Cc1ccccc1)Cc1ccccc1)Cc1ccccc1)Cc1ccccc1)Cc1ccccc1: 17
NCCCCCCNCC(=O)N(CC(=O)N(CC(=O)N(CCCCCCN)CC(=O)N(CC(=O)N(CC(N)=O)Cc1ccccc1)Cc1ccccc1)Cc1ccccc1)Cc1ccccc1 (H-[Gly(N-(CH2)6NH2)][Nphe][Nphe][Gly(N-(CH2)6NH2)][Nphe][Nphe]-NH2): 1
C[C@@H](c1ccccc1)N(CC(N)=O)C(=O)CN(C(=O)CN(CCN)C(=O)CN(C(=O)CN(C(=O)CN(CCN)C(=O)CN(C(=O)CN(C(=O)CN(CCN)C(=O)CN(C(=O)CN(C(=O)CNCCN)[C@@H](C)c1ccccc1)[C@@H](C)c1ccccc1)[C@@H](C)c1ccccc1)[C@@H](C)c1ccccc1)[C@@H](C)c1ccccc1)[C@@H](C)c1ccccc1)[C@@H](C)c1ccccc1 (H-[Gly(N-2-aminoethyl)][Nspe][Nspe][Gly(N-2-aminoethyl)][Nspe][Nspe][Gly(N-2-aminoethyl)][Nspe][Nspe][Gly(N-2-aminoethyl)][Nspe][Nspe]-NH2): 13
NCCCCNCC(=O)N(CC(=O)N(CC(=O)N(CCCCN)CC(=O)N(CC(=O)N(CC(=O)N(CCCCN)CC(=O)N(CC(=O)N(CC(N)=O)Cc1ccc(Cl)cc1)Cc1ccc(Cl)cc1)Cc1ccc(Cl)cc1)Cc1ccc(Cl)cc1)Cc1ccc(Cl)cc1)Cc1ccc(Cl)cc1 (H-[Nlys][Gly(Nα-4-Cl-benzyl)][Gly(Nα-4-Cl-benzyl)][Nlys][Gly(Nα-4-Cl-benzyl)][Gly(Nα-4-Cl-benzyl)][Nlys][Gly(Nα-4-Cl-benzyl)][Gly(Nα-4-Cl-benzyl)]-NH2): 11
NCCCCNCC(=O)N(CC(=O)N(CC(=O)N(CCCCN)CC(=O)N(CC(=O)N(CC(N)=O)Cc1ccccc1)Cc1ccccc1)Cc1ccccc1)Cc1ccccc1 (H-[Nlys][Nphe][Nphe][Nlys][Nphe][Nphe]-NH2): 1
